Please go through the items and note down their speed of sound.
- Settings: 331.41 K; 101.33 kPa; Liquid; Pulse-echo method
The reply should be a number in m/s, with the unit left off.

Q: State the recorded speed of sound for this entry: CCC(=O)[O-].C[NH2+]CCO [2-hydroxy-N-methylethanaminium propionate]
A: 1591.1

Q: State the recorded speed of sound for this entry: CCCC(=O)[O-].C[NH2+]CCO [N-methyl-2-hydroxyethylammonium butanoate]
A: 1510.3

Q: State the recorded speed of sound for this entry: CCCCC(=O)[O-].C[NH2+]CCO [2-hydroxy-N-methylethanaminium pentanoate]
A: 1446.2

Q: State the recorded speed of sound for this entry: CC(C)C(=O)[O-].C[NH2+]CCO [2-hydroxy-N-methylethanaminium isobutyrate]
A: 1517

Q: State the recorded speed of sound for this entry: C[NH2+]CCO.O=C[O-] [2-hydroxy-N-methylethanaminium formate]
A: 1750.8

====

Please go through the items and note down their mass density.
- Settings: 294.9 K; 101.33 kPa; Liquid; Vibrating tube method
The reply should be a number in kg/m3, with the unit left off.

Q: State the recorded mass density for this entry: CC(=O)[O-].C[NH2+]CCO [N-methyl-2-hydroxyethylammonium acetate]
A: 1102.73

Q: State the recorded mass density for this entry: CCC(=O)[O-].C[NH2+]CCO [2-hydroxy-N-methylethanaminium propionate]
A: 1073.35

Q: State the recorded mass density for this entry: CCCC(=O)[O-].C[NH2+]CCO [N-methyl-2-hydroxyethylammonium butanoate]
A: 1041.45

Q: State the recorded mass density for this entry: CC(C)C(=O)[O-].C[NH2+]CCO [2-hydroxy-N-methylethanaminium isobutyrate]
A: 1045.43

Q: State the recorded mass density for this entry: C[NH2+]CCO.O=C[O-] [2-hydroxy-N-methylethanaminium formate]
A: 1130.06

Q: State the recorded mass density for this entry: CCCCC(=O)[O-].C[NH2+]CCO [2-hydroxy-N-methylethanaminium pentanoate]
A: 1018.42

====

- Settings: 281.65 K; 101.33 kPa; Liquid; Vibrating tube method
Recorded metric: mass density (kg/m3)
The reply should be a number in kg/m3, with the unit left off.

Q: State the recorded mass density for this entry: CCCC(=O)[O-].C[NH2+]CCO [N-methyl-2-hydroxyethylammonium butanoate]
A: 1050.38

Q: State the recorded mass density for this entry: CC(C)C(=O)[O-].C[NH2+]CCO [2-hydroxy-N-methylethanaminium isobutyrate]
A: 1053.88

Q: State the recorded mass density for this entry: CCCCC(=O)[O-].C[NH2+]CCO [2-hydroxy-N-methylethanaminium pentanoate]
A: 1027.34

Q: State the recorded mass density for this entry: CC(=O)[O-].C[NH2+]CCO [N-methyl-2-hydroxyethylammonium acetate]
A: 1110.74

Q: State the recorded mass density for this entry: C[NH2+]CCO.O=C[O-] [2-hydroxy-N-methylethanaminium formate]
A: 1137.46

Q: State the recorded mass density for this entry: CCC(=O)[O-].C[NH2+]CCO [2-hydroxy-N-methylethanaminium propionate]
A: 1082.02

====

- Settings: 281.15 K; 101.33 kPa; Liquid; Pulse-echo method
Recorded metric: speed of sound (m/s)
The reply should be a number in m/s, with the unit left off.

Q: State the recorded speed of sound for this entry: C[NH2+]CCO.O=C[O-] [2-hydroxy-N-methylethanaminium formate]
A: 1848.7

Q: State the recorded speed of sound for this entry: CCCCC(=O)[O-].C[NH2+]CCO [2-hydroxy-N-methylethanaminium pentanoate]
A: 1605.5

Q: State the recorded speed of sound for this entry: CC(C)C(=O)[O-].C[NH2+]CCO [2-hydroxy-N-methylethanaminium isobutyrate]
A: 1660.8

Q: State the recorded speed of sound for this entry: CCCC(=O)[O-].C[NH2+]CCO [N-methyl-2-hydroxyethylammonium butanoate]
A: 1672

Q: State the recorded speed of sound for this entry: CCC(=O)[O-].C[NH2+]CCO [2-hydroxy-N-methylethanaminium propionate]
A: 1742.3

The reported measurements were obtained from the NIST ThermoML archive (doi:10.1021/je900550v).
